Assay: Oral bioavailability in Beagle dog at 5 mg/kg
Assay type: ADME, organism-based, Canis lupus familiaris
Details: in vivo
reported-endpoint: bioavailability (%)
Quick note: give the figure in %, leave out the unit.

## Input Output bioavailability of "CC(C)c1onc(-c2c(Cl)cccc2Cl)c1COc1ccc(-c2ccc3c(C(=O)O)cccc3c2)cc1"
## Output 56

* * *

Assay: Half life in iv dosed cynomolgus monkey
Type: ADME, organism-based, Macaca fascicularis
Details: in vivo
reported-endpoint: half-life (h)
Quick note: give the figure in h, leave out the unit.

## Input Output half-life of "CC(C)c1onc(-c2c(Cl)cccc2Cl)c1COc1ccc(-c2ccc3c(C(=O)O)cccc3c2)cc1"
## Output 1.5

* * *

Test: Oral bioavailability in rat at 30 mg/kg
Assay type: ADME, organism-based
Conditions: in vivo
reported-endpoint: bioavailability (%)
Quick note: give the figure in %, leave out the unit.

## Input Output bioavailability of "CC(C)c1onc(-c2c(Cl)cccc2Cl)c1COc1ccc(-c2ccc3c(C(=O)O)cccc3c2)cc1"
## Output 7.7

* * *

Assay: Oral bioavailability in cynomolgus monkey at 5 mg/kg
Assay type: ADME, organism-based, Macaca fascicularis
Conditions: in vivo
reported-endpoint: bioavailability (%)
Quick note: give the figure in %, leave out the unit.

## Input Output bioavailability of "CC(C)c1onc(-c2c(Cl)cccc2Cl)c1COc1ccc(-c2ccc3c(C(=O)O)cccc3c2)cc1"
## Output 34

* * *

Biological target: Bile acid receptor (Homo sapiens) (UniProt Q96RI1)
Sequence (Q96RI1 whole entry): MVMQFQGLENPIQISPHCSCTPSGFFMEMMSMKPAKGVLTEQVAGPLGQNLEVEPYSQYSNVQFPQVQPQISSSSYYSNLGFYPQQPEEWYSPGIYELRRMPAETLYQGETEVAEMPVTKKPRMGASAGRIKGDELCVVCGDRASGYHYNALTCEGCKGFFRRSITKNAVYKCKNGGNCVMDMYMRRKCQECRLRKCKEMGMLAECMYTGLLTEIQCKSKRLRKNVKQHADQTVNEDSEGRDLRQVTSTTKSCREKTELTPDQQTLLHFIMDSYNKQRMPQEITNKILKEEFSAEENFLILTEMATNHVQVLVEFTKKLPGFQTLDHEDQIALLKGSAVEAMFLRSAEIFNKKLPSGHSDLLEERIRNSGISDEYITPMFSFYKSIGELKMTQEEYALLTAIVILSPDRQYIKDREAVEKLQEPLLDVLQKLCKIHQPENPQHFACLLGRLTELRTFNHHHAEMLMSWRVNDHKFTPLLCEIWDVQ
Assay: Agonist activity at FXR assessed as receptor-SRC-1 peptide interaction by FRET assay relative to GW-4064
Type: functional
Below, each entry is listed alongside its reported %max.
Answer by giving the amount and then stating its unit.

Reference set, count: 3
compound-string | system-name | %max
CC(C)c1onc(-c2c(Cl)cccc2Cl)c1COc1ccc(-c2ccc3cccc(C(=O)O)c3c2)cc1 | Bile acid receptor (Homo sapiens) (UniProt Q96RI1) | 52%
CC(C)c1onc(-c2c(Cl)cccc2Cl)c1COc1ccc(-c2ccc3c(C(=O)O)cccc3c2)cc1 | Bile acid receptor (Homo sapiens) (UniProt Q96RI1) | 134%
CC(C)c1onc(-c2c(Cl)cccc2Cl)c1COc1ccc(-c2ccc3ccc(C(=O)O)cc3c2)cc1 | Bile acid receptor (Homo sapiens) (UniProt Q96RI1) | 69%

Here is another molecule to look at.
## Input Output %max of "CC(C)c1onc(-c2c(Cl)cccc2Cl)c1COc1ccc(-c2ccc3cc(C(=O)O)ccc3c2)cc1"
## Output 90%

* * *

Experiment: Volume of distribution at steady state in iv dosed rat
Type: ADME, organism-based
Settings: in vivo, read-out: Vdss
reported-endpoint: Vd (L/kg)
Quick note: give the figure in L/kg, leave out the unit.

## Input Output Vd of "CC(C)c1onc(-c2c(Cl)cccc2Cl)c1COc1ccc(-c2ccc3c(C(=O)O)cccc3c2)cc1"
## Output 1
